Assay: Mouse pharmacokinetic study (iv clearance, oral exposure)
Assay type: in vivo
Design: key: ‘poor’ for DNAUC ≦101 ng·h/mL/mg/kg; ‘good’ for DNAUC >101 ng·h/mL/mg/kg; In cases where both ‘poor’ and ‘good’ oral exposures were observed, a designation of ‘mixed’ is utilized
Details: oral, dose-normalized AUC, 2-3 animals per experiment
observed property: Mouse po DNAUC

{"columns": ["mol smiles", "observed property", "value observed"],
 "data": [
  ["CCC(=O)N1CC[C@@H](Cc2n[nH]c(=O)n2-c2ccc(-c3ccc4cc(C)cnc4c3)cc2F)C1", "Mouse po DNAUC", "mixed"],
  ["CCC(=O)N1CC[C@@H](Cc2n[nH]c(=O)n2-c2ccc(-c3ccc4cc(Cl)cnc4c3)cc2F)C1", "Mouse po DNAUC", "mixed"]
]}
